# experimental.target: S1P1 (Homo sapiens (Human), UniProt P21453)
# Sequence (P21453 whole entry): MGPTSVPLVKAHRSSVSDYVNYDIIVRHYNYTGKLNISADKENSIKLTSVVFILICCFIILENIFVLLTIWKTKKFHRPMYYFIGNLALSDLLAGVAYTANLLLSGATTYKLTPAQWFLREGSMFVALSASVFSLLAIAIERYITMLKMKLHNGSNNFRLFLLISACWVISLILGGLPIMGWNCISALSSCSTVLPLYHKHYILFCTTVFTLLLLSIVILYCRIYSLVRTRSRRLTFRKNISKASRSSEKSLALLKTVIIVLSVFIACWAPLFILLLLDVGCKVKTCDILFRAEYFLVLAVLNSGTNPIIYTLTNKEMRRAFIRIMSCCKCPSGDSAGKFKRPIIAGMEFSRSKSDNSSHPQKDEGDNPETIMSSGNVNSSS
# method.description: Receptor [35S] GTPγS Binding Assay, S1P1
# measurement.conditions: membranes from S1P1/CHO cells; [35S]GTP
EC50 for assorted molecules
attribute.measured: EC50 (nM)

INSERT INTO assay_data (molecule, uom, value) VALUES
  ('CCNC(=O)C(O)c1ccc(-c2noc(-c3cnn(-c4ccccc4)c3C(F)(F)F)n2)cc1 (racemic)', 'nM', 34.2),
  ('CN(C)C(=O)CCNC(=O)C(O)c1ccc(-c2noc(-c3onc(-c4ccccc4)c3C(F)(F)F)n2)cc1 (single isomer, unassigned)', 'nM', 1.9),
  ('CC(C)(C)OC(=O)NCCNC(=O)C(O)c1ccc(-c2noc(-c3onc(-c4ccccc4)c3C(F)(F)F)n2)cc1 (racemic)', 'nM', 89.4);
